assay-system: Sentrin-specific protease 8 (Homo sapiens, UniProt Q96LD8)
Sequence (Q96LD8 whole entry): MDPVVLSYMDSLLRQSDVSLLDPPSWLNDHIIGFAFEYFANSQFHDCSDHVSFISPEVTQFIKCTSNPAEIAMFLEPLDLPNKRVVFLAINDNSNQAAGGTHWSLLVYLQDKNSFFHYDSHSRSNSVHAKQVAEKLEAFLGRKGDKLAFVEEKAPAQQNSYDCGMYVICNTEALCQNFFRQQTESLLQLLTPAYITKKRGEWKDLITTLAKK
Format: functional
Calls of active or inactive are those of the source.
Each entry below carries its reported IC50.

cpd-smiles: CC[C@H](CO)Oc1cc(NCc2cccc(N)c2)c2ncn(C(C)C)c2c1
assay-system: Sentrin-specific protease 8 (Homo sapiens, UniProt Q96LD8)
IC50: 1.87 µM (active)
--
cpd-smiles: Cc1cc(=O)n(-c2ccc3ccccc3n2)[nH]1
assay-system: Sentrin-specific protease 8 (Homo sapiens, UniProt Q96LD8)
IC50: 30.4 µM (active)
--
cpd-smiles: COc1cc(N(C(C)=O)c2ccc(O)c(C(=O)O)c2)c2ncccc2c1
assay-system: Sentrin-specific protease 8 (Homo sapiens, UniProt Q96LD8)
IC50: 9.87 µM (active)
--
cpd-smiles: Cc1[nH][nH]c(=O)c1C(c1c(C)[nH][nH]c1=O)c1cn(Cc2ccc(Cl)c(Cl)c2)c2ccccc12
assay-system: Sentrin-specific protease 8 (Homo sapiens, UniProt Q96LD8);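 note: kinetic enzyme assay of SENP8 cleaving a Nedd8 protein substrate, dose-response confirmation of screening hits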
IC50: 6.19 µM (active)
